Target: X-box-binding protein 1 (Homo sapiens) (UniProt P17861)
Sequence (P17861 whole entry, looked up): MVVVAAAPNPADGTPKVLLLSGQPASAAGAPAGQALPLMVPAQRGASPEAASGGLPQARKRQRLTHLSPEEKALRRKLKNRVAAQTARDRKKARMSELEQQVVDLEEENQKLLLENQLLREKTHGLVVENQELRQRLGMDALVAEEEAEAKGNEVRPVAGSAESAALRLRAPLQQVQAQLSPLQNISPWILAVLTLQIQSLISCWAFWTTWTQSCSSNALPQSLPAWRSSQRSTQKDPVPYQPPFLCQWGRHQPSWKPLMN
Test: ATG_Xbp1_CIS: Attagene CIS-FACTORIAL HepG2 Assay for human X-box Binding Protein 1 (XBP1) (AID 2282972)
Conditions: HepG2 XBP1 cis-element reporter, Attagene multiplex; actives raise or lower the signal
The source made the active and inactive calls. The calls were made as follows: active = hit-call score of the fitted dose curve at least 0.9, where 1 is the maximum; inactive = score below 0.9.
In this exercise, the only acceptable responses are active, inactive

Name the outcome recorded for OCC(CO)(CO)COCC(CO)(CO)CO in the assay. inactive

Name the outcome recorded for Cc1ccc(C(C)C)cc1O in the assay. inactive

Name the outcome recorded for C=C(C)C(=O)O in the assay. inactive

Name the outcome recorded for CC[C@]12CCCN3CCc4c(n(c5ccccc45)[C@@](O)(C(=O)OC)C1)[C@@H]32 in the assay. inactive

Name the outcome recorded for CCC(C)(O)CCC=C(C)C (stereo not drawn) in the assay. inactive

Name the outcome recorded for C=C[C@@H](C)CCC=C(C)C in the assay. inactive

Name the outcome recorded for N#Cc1nc(Cl)c(Cl)c(Cl)c1Cl in the assay. active

Name the outcome recorded for CCCC(C)C=O (stereo not drawn) in the assay. inactive

###

Test: ATG_M_32_CIS: Attagene CIS-FACTORIAL HepG2 Assay for M32 Transcription Factor (Internal Marker) (AID 2282949);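 also: background control marker of the multiplexed CIS panel rather than a real target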
Conditions: HepG2 Attagene cis-factorial M32 reporter, mRNA; actives raise or lower the signal
Calls of active or inactive are those of the source. How the source made its calls: active means hit-call score of the fitted dose curve at least 0.9, where 1 is the maximum; inactive means score below 0.9.
In this exercise, the only acceptable responses are 1 (yes) (active), 0 (no) (inactive)

Name the outcome recorded for CCCCc1ccc(N)cc1 in the assay. 0 (no)

Name the outcome recorded for CCCCCCOC(=O)CC in the assay. 0 (no)

Name the outcome recorded for C[Si](O[Si](C)(C)C)O[Si](C)(C)C in the assay. 0 (no)

Name the outcome recorded for COC(=O)OC in the assay. 0 (no)

Name the outcome recorded for Cc1ccccc1C=O in the assay. 0 (no)

Name the outcome recorded for CC(C)(C)NC(N)=O in the assay. 0 (no)

Name the outcome recorded for COc1ccc(O)cc1 in the assay. 0 (no)

Name the outcome recorded for CC(C)C(C)(C)C(C)(C)C(C)(C)S in the assay. 0 (no)

Name the outcome recorded for CC(C)=CCO in the assay. 0 (no)

Name the outcome recorded for CCCCC(CC)COC(=O)/C=C\C(=O)OCC(CC)CCCC (centres undefined) in the assay. 0 (no)

Name the outcome recorded for CC(=O)/C=C/C1=C(C)CCCC1(C)C in the assay. 0 (no)

Name the outcome recorded for O=C1NC(=O)c2ccccc21 in the assay. 0 (no)

Name the outcome recorded for CCCCC/C=C/C=C/C=O in the assay. 0 (no)

Name the outcome recorded for CCC(=O)OCCC(C)CCC=C(C)C (centres undefined) in the assay. 0 (no)

Name the outcome recorded for CCCCCCCCCCC(CO)CCCCCCCC (centres undefined) in the assay. 0 (no)

Name the outcome recorded for OCCN1CCNCC1 in the assay. 0 (no)

Name the outcome recorded for CC(C)(CO)[N+](=O)[O-] in the assay. 0 (no)

Name the outcome recorded for OC1C(O)C(O)C(O)C(O)C1O (centres undefined) in the assay. 0 (no)

Name the outcome recorded for O=[N+]([O-])c1ccc(C=Cc2ccc([N+](=O)[O-])cc2S(=O)(=O)O)c(S(=O)(=O)O)c1 in the assay. 0 (no)

Name the outcome recorded for Cc1c(N(C)C)c(=O)n(-c2ccccc2)n1C in the assay. 0 (no)

Name the outcome recorded for CC[C@]12CCCN3CCc4c(n(c5ccccc45)[C@@](O)(C(=O)OC)C1)[C@@H]32 in the assay. 0 (no)

Name the outcome recorded for CC(=O)OCc1ccc2c(c1)OCO2 in the assay. 0 (no)

Name the outcome recorded for OCCOc1cccc(OCCO)c1 in the assay. 0 (no)

Name the outcome recorded for CC1(C)C(=O)N(Br)C(=O)N1Cl in the assay. 0 (no)

Name the outcome recorded for CCOC(=S)SSC(=S)OCC in the assay. 0 (no)

Name the outcome recorded for CCCCC[Si](OCC)(OCC)OCC in the assay. 0 (no)

Name the outcome recorded for FC1(F)C(F)(F)C(F)(F)C2(F)C(F)(C1(F)F)C(F)(F)C(F)(F)C1(F)C(F)(F)C(F)(F)C(F)(F)C(F)(F)C12F (centres undefined) in the assay. 0 (no)

Name the outcome recorded for Cc1ccc(Nc2ccc(O)c3c2C(=O)c2ccccc2C3=O)cc1 in the assay. 0 (no)

Name the outcome recorded for CN1Cc2c(N)cccc2C(c2ccccc2)C1 (centres undefined) in the assay. 0 (no)

Name the outcome recorded for CC(C)(COC(=O)c1ccccc1)COC(=O)c1ccccc1 in the assay. 0 (no)

Name the outcome recorded for CC(CN1c2ccccc2Sc2ccccc21)N(C)C (centres undefined) in the assay. 0 (no)

Name the outcome recorded for CC(CCO)CCCC(C)(C)O (centres undefined) in the assay. 0 (no)

Name the outcome recorded for CC(=O)C(=O)O in the assay. 0 (no)

Name the outcome recorded for CCCC(=O)c1cc(O)c(O)cc1O in the assay. 0 (no)

Name the outcome recorded for NC(N)=NC(=O)c1nc(Cl)c(N)nc1N in the assay. 0 (no)

Name the outcome recorded for CCCCNC(=O)NS(=O)(=O)c1ccc(N)cc1 in the assay. 0 (no)

Name the outcome recorded for CSc1nc(NC2CC2)nc(NC(C)(C)C)n1 in the assay. 0 (no)

Name the outcome recorded for CCCC(=O)C(C)=O in the assay. 0 (no)

Name the outcome recorded for CN(C)CCCN in the assay. 0 (no)

Name the outcome recorded for CC(=O)Nc1ccc(CC(=O)O)cc1 in the assay. 0 (no)

Name the outcome recorded for O=C(O)Cc1cccc2ccccc12 in the assay. 0 (no)

Name the outcome recorded for CCCC/C=C\CCCCCCCCCC=O in the assay. 0 (no)

Name the outcome recorded for Nc1ccc(F)c([N+](=O)[O-])c1 in the assay. 0 (no)

Name the outcome recorded for CC(=O)c1c(C)cc(C(C)(C)C)cc1C in the assay. 0 (no)

Name the outcome recorded for CC(c1cc2ccccc2s1)N(O)C(N)=O (centres undefined) in the assay. 0 (no)

Name the outcome recorded for Nc1cccc(S(=O)(=O)c2cccc(N)c2)c1 in the assay. 0 (no)

Name the outcome recorded for CCCOCC(C)O (centres undefined) in the assay. 0 (no)

Name the outcome recorded for CCCCCCC#CC(=O)OC in the assay. 0 (no)

Name the outcome recorded for CC(C)=CCC[C@](C)(O)[C@@H]1CC=C(C)CC1 in the assay. 0 (no)

Name the outcome recorded for O=Cc1ccc(Cl)c([N+](=O)[O-])c1 in the assay. 0 (no)

Name the outcome recorded for Clc1ccc2c(c1)C(N1CCNCC1)=Nc1ccccc1O2 in the assay. 1 (yes)

Name the outcome recorded for Cc1ccc(C(C)C)cc1O in the assay. 0 (no)

Name the outcome recorded for Cc1ccc2ccccc2n1 in the assay. 0 (no)

Name the outcome recorded for CC(=O)[C@H]1CC[C@H]2[C@@H]3CC=C4C[C@@H](O)CC[C@]4(C)[C@H]3CC[C@]12C in the assay. 0 (no)

Name the outcome recorded for CCCCCCOC(=O)CCCCC in the assay. 0 (no)

Name the outcome recorded for Clc1nc(C(Cl)(Cl)Cl)c(Cl)c(Cl)c1Cl in the assay. 0 (no)

Name the outcome recorded for O=C(O)c1cccc([N+](=O)[O-])c1 in the assay. 0 (no)

Name the outcome recorded for Cc1ccc(C(=O)c2cc(O)c(O)c([N+](=O)[O-])c2)cc1 in the assay. 0 (no)

Name the outcome recorded for CC1COc2ccccc2N1C(=O)C(Cl)Cl (centres undefined) in the assay. 0 (no)
